# Tested on: HH (T-Cell Non-Hodgkin's Lymphoma)
# test: combination Emax (second highest fraction inhibited in the dose matrix, 72 h); higher = more inhibition; extreme values may be limits of the assay
Please respond with reported combination Emax for every item in the list.
Answers are plain numbers.

Below, each entry is followed by its recorded combination Emax result.
{"compound": "NC1(C(=O)N[C@@H](CCO)c2ccc(Cl)cc2)CCN(c2ncnc3[nH]ccc23)CC1 [Capivasertib] + COc1nnc2ccc(N3CCC(c4ccc(OCCN5CCN(C)C(=O)[C@H]5C)cc4)CC3)nn12 [AZD5153] (first compound max 10 µM, 7x7, partner max 1 µM)", "assayed.target": "HH (T-Cell Non-Hodgkin's Lymphoma)", "combination Emax": 0.439}
{"compound": "C[C@@H](Oc1cc(-c2cnn(C3CCNCC3)c2)cnc1N)c1c(Cl)ccc(F)c1Cl [Crizotinib] + Cn1cnc2c(F)c(Nc3ccc(Br)cc3Cl)c(C(=O)NOCCO)cc21 [Selumetinib] (first compound max 10 µM, 7x7, partner max 10 µM)", "assayed.target": "HH (T-Cell Non-Hodgkin's Lymphoma)", "combination Emax": 0.0931}
{"compound": "Cc1c2c(nn1C)CSCc1cc(n(C)n1)CSc1cc(c3ccccc3c1)OCCCc1c(C(=O)O)n(C)c3c-2c(Cl)ccc13 [AZD5991] + C[C@@H]1COCCN1C2=NC(=NC(=C2)C3(CC3)[S@](=N)(=O)C)C4=C5C=CNC5=NC=C4 [AZD6738] (first compound max 1 µM, 7x7, partner max 10 µM)", "assayed.target": "HH (T-Cell Non-Hodgkin's Lymphoma)", "combination Emax": 0.759}

// next entry
Query: combination Emax; subject: C=CCn1c(=O)c2cnc(Nc3ccc(N4CCN(C)CC4)cc3)nc2n1-c1cccc(C(C)(C)O)n1 [AZD1775] + C[C@@H]1COCCN1C2=NC(=NC(=C2)C3(CC3)[S@](=N)(=O)C)C4=C5C=CNC5=NC=C4 [AZD6738] (first compound max 1 µM, partner max 10 µM)
0.583

Provenance of the data: the supplement of paper PMC11061612
